All values here come from PubChem BioAssay (NCI).

- Test system: MDA-MB-231 breast
- protocol-summary: NCI-60 one-dose screen, 48 h
- measurement-setup: 10 µM
About 83,000 compounds went through this panel and 20% of them were active in at least one assay; those are over-represented in the sample as a whole. The source made the active and inactive calls. How the source made its calls: active means growth percent below 10; inactive means the rest.
Bench note: report the call from active, inactive

{"columns": ["molecule", "group"],
 "data": [
  ["COc1ccc(N(C)c2cc(C#N)nc3ccccc23)cc1/C=C/C(=O)NO", "active"]
]}

Tell me the recorded outcome of this test for N#Cc1ccc(-c2nn(-c3ccc(C(=O)O)cc3)cc2CNc2cccc(Br)c2)cc1 .
inactive

Tell me the recorded outcome of this test for O=C(CN1CCN(c2ncnc3c2cnn3-c2ccccc2)CC1)Nc1nncs1 .
inactive
